Reference source for all entries: the supplement of paper PMC10567573

B1: WDFY2 (parent)
chain: FWNFKQMWDSKKIGLRQHHCRKCG

Variants of: B1
test_method_notes: protein stability index of a GFP-peptide fusion (GPS, HEK-293T) (PSI 1-6); higher = more stable;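 note: lentivirally expressed fusions sorted by FACS into six bins by GFP to DsRed ratio, PSI derived from sequencing read proportions per bin multiplied by bin number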
run_conditions: c terminus: a fixed tail appended
Please note: 1 applies when protein stability index is 2 or greater, and 0 applies otherwise.

variant_label=S10H class_label=1
variant_label=I13Q class_label=0
variant_label=K5I class_label=0
variant_label=C23F class_label=1
variant_label=G14I class_label=0
variant_label=F4W class_label=1
variant_label=Q17N class_label=0
variant_label=K12Y class_label=0
variant_label=K11A class_label=1
variant_label=K12M class_label=0
variant_label=R16N class_label=0
variant_label=K5V class_label=1
variant_label=H18W class_label=1
variant_label=K12L class_label=0
